Here the recorded Ki is given for each entry.
# TEST TARGET: Kappa-type opioid receptor (Cavia porcellus)
# Sequence (P41144 whole entry): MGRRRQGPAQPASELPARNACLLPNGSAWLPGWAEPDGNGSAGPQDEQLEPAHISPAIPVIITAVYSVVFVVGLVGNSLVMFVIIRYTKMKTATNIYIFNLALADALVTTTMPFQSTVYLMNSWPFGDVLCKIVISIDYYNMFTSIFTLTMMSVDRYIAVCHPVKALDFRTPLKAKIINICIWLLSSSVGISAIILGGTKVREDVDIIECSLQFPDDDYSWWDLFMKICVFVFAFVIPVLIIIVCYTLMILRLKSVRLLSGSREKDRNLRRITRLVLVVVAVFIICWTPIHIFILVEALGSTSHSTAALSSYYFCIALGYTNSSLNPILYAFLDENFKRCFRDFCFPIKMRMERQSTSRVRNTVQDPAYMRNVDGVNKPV
# ASSAY SUMMARY: Binding affinity towards guinea pig Opioid receptor kappa 1 using radioligand [3H]U-69593
ATTRIBUTE MEASURED: Ki (nM)

1. C[C@H]1[C@H]2Cc3ccc(O)cc3[C@]1(C)CCN2CC1CC1: 0.18
2. NC(=O)c1ccc2c3c1O[C@H]1C(=O)CC[C@@]4(O)[C@@H](C2)N(CC2CC2)CC[C@]314: 22
3. CN1CC[C@]23c4c5ccc(C(N)=O)c4OC2C(O)C=C[C@H]3[C@H]1C5 (stereo not given in full): 2000
